Values were extracted from ChEMBL document CHEMBL4689842.

Recorded Growth Rate for the following compounds
- Tested on: HEK-293T
- Assay Summary: Incucyte cell viability with HEK293T; note: filed as whole numbers so only -1 and 0 and 1 occur
- Type: toxicity, cell-based
- Condition Description: human, 12 h, 10 µM, compound concentration 10 uM, replicate number 2, timepoint 12 hours
Just the number, please, no unit after it.

Recorded Growth Rate, per entry:
CO[C@H]1CC[C@H](CNc2ccc(S(=O)(=O)NC(=O)c3ccc(N4CCN(CC5=C(c6ccc(Cl)cc6)CC(C)(C)CC5)CC4)cc3Oc3cnc4[nH]ccc4c3)cc2[N+](=O)[O-])CC1 [A-1211212] | 1
CCCn1c(=O)c2[nH]c(-c3cnn(Cc4cccc(C(F)(F)F)c4)c3)nc2n(CC)c1=O [GS 6201] | 1
CC(C)c1onc(-c2c(Cl)cccc2Cl)c1COc1ccc(/C=C/c2cccc(C(=O)O)c2)c(Cl)c1 | 1
COc1cc(OC)cc(-c2noc(N3CCN(C)C4(CCN(c5ccnc(C)c5)CC4)C3)n2)c1 | 1
Cc1nc(NC(=O)N2CCC[C@H]2C(N)=O)sc1-c1ccnc(C(C)(C)C(F)(F)F)c1 [ALPELISIB] | 0
Cn1cc(CCn2cnc(-c3cnn(C)c3)c2-c2ccc(C#N)cc2)cn1 | 1
COc1cc(N2CCN(C)CC2)ccc1Nc1ncc2c(n1)N(C)c1ccccc1C(=O)N2C | 0
CCCCN(CCCC)C(=O)CN1C[C@H](c2cc(OC)c3c(c2)OCO3)[C@@H](C(=O)O)[C@@H]1CC(C)(C)CCC.Cc1ccc(S(=O)(=O)O)cc1 | 0

Could you share what Growth Rate was measured for C[C@]12CCC(=O)C=C1CC[C@@H]1[C@@H]2[C@@H](O)C[C@]2(C=O)[C@@H](C(=O)CO)CC[C@@H]12 [ALDOSTERONE] , tested on HEK-293T?
0

// lookup Growth Rate | system=HEK-293T | key= Cl.O=C(O)Cc1cccc(OCCCN(Cc2cccc(C(F)(F)F)c2Cl)CC(c2ccccc2)c2ccccc2)c1
0

Please state recorded Growth Rate (tested on HEK-293T) of C[C@@H](c1cccc(C#N)c1)n1cc(Cl)cc(C(N)=O)c1=N.Cl
1

Tell me reported Growth Rate for CCn1c(=O)c(-c2ccc(-c3cncs3)cc2Cl)cc2cnc(Nc3ccc(N4CCN(C)CC4)cc3)nc21 , tested with HEK-293T.
0

State its Growth Rate on HEK-293T: Cc1nnn(-c2ccc(-c3ccc(C4(C(=O)O)CC4)cc3)cc2)c1NC(=O)O[C@H](C)c1ccccc1
1

----------
- Tested on: HEK-293T
- Assay Summary: Multiplex assay against HEK293T
- Type: toxicity, cell-based
- Condition Description: human, 12 h, 10 µM, compound concentration 10 uM, replicate 1
Measured Parameter: Population Normal (%)
Write the answer as a number in %, unit excluded.

O=C1NC(=O)C(c2cnc3ccccn23)=C1c1cn2c3c(cc(F)cc13)CN(C(=O)N1CCCCC1)CC2 | 82

Checklist item: Population Normal (%) tested on HEK-293T, entry Cl.Oc1ccc2c3c1O[C@H]1c4[nH]c5c(c4C[C@@]4(O)[C@@H](C2)N(CC2CC2)CC[C@]314)C[C@@]1(O)[C@H]2Cc3ccc(O)c4c3[C@@]1(CCN2CC1CC1)[C@H]5O4 , value?
87

Give Population Normal (%) (HEK-293T) of the following compound: C=C1/C(=C\C=C2/CCC[C@]3(C)[C@@H]([C@H](C)/C=C/[C@H](C)C(C)C)CC[C@@H]23)C[C@@H](O)C[C@@H]1O
83

Fill in the recorded Population Normal (%) for this compound, with HEK-293T as test system: Cc1ccc2nc(NCCN)c3ncc(C)n3c2c1.O=C(O)C(F)(F)F.O=C(O)C(F)(F)F
85
